- Tested on: L. donovani intracellular amastigotes
- protocol: L. donovani intramacrophage (intracellular amastigote) assay
- Type: cell-based, Leishmania donovani
- conditionInfo: L. donovani intracellular amastigotes; read-out: intramacrophage EC50
pEC50: −log10 of the molar value.
reportedEndpoint: pEC50

Ask: # query: pEC50 | item Cc1nn(C)c(C)c1N[S+](=O)([O-])c1ccc(CCCC2CCNCC2)cc1 | system: L. donovani intracellular amastigotes
Reply: < 4.30

----------
- Test system: L. donovani axenic amastigotes
- protocol: L. donovani axenic amastigote compound sensitivity assay
- Assay type: cell-based, Leishmania donovani
- conditionInfo: L. donovani LdBOB; read-out: axenic amastigote EC50
reportedEndpoint: EC50

Ask: Which EC50 value belongs to Cc1nn(C)c(C)c1N[S+](=O)([O-])c1ccc(CCCC2CCNCC2)cc1 ?
Reply: > 50 µM

----------
- Tested on: THP-1
- protocol: THP-1 host cell toxicity in the intramacrophage assay
- Type: cell-based
- conditionInfo: read-out: THP-1 EC50
reportedEndpoint: EC50

Ask: Which EC50 value belongs to Cc1nn(C)c(C)c1N[S+](=O)([O-])c1ccc(CCCC2CCNCC2)cc1 ?
Reply: > 50 µM

----------
- Tested on: intracellular amastigote form of T. cruzi
- protocol: T. cruzi intracellular amastigote assay
- Type: cell-based
- conditionInfo: Trypanosoma cruzi; read-out: EC50 against T. cruzi intracellular amastigotes
reportedEndpoint: pEC50
Keep it numeric: pEC50 is minus log10 of the concentration in mol/L.

Ask: Which pEC50 value belongs to Cc1nn(C)c(C)c1N(C(F)F)S(=O)(=O)c1c(Cl)cc(CCCC2CCN(C)CC2)cc1Cl [compound 2] ?
Reply: 6.33

----------
- System: L. donovani promastigotes
- protocol: L. donovani promastigote compound sensitivity assay
- Type: cell-based, Leishmania donovani
- conditionInfo: L. donovani LdBOB; read-out: promastigote EC50
reportedEndpoint: EC50

Ask: Which EC50 value belongs to Cc1nn(C)c(C)c1N[S+](=O)([O-])c1ccc(CCCC2CCNCC2)cc1 ?
Reply: > 50 µM

----------
- targetSystem: L. major NMT (LmNMT) (Leishmania major)
- Construct: Recombinant LmNMT was expressed and purified as previously described; made in house
- Sequence (Q4Q5S8 entry or part of it): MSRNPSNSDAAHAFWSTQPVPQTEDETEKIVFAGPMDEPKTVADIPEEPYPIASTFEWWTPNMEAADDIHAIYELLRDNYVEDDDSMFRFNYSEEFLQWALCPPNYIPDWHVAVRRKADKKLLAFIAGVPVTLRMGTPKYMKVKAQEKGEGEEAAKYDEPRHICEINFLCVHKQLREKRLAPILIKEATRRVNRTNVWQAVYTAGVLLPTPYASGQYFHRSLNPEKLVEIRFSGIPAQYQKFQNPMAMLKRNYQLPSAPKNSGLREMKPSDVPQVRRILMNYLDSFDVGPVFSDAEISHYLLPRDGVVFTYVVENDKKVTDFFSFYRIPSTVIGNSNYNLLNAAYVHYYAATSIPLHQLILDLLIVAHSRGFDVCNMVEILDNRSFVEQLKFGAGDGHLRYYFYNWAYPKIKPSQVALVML
- protocol: LmNMT enzymatic assay (scintillation proximity, [3H]myristoyl-CoA, CAP5.5 peptide)
- Assay type: biochemical
reportedEndpoint: IC50 (µM)
Value expressed in µM; do not type the unit.

Example entries begin here.
Cc1nn(C)c(C)c1N(C)S(=O)(=O)c1c(Cl)cc(N2CCN(C(=O)c3cnn(C)c3)CC2)cc1Cl
0.08
Cc1nn(C)c(C)c1N(C)S(=O)(=O)c1c(Cl)cc(N2CCN(C(=O)c3cccnc3)CC2)cc1Cl
0.1
Cc1nn(C)c(C)c1N(C)S(=O)(=O)c1c(Cl)cc(N2CCN(C(=O)Cc3ccccc3)CC2)cc1Cl
10

Ask: Which IC50 value belongs to Cc1nn(C)c(C)c1N(C)S(=O)(=O)c1c(Cl)cc(N2CCN(C(=O)c3ccc(N)cc3)CC2)cc1Cl ?
Reply: 0.03

Ask: Another compound to look at: Cc1nn(C)c(C)c1N(C)S(=O)(=O)c1c(Cl)cc(N2CCN(C(=O)c3cn[nH]c3)CC2)cc1Cl
Reply: 0.06

Ask: Another compound to look at: Cc1nn(C)c(C)c1N(C)S(=O)(=O)c1c(Cl)cc(N2CCN(C(=O)c3ccn[nH]3)CC2)cc1Cl
Reply: 0.03
